# Tested on: ASPC1 cells
# assay.summary: Inhibition of KRas-mediated phosphorylation of ERK (Cisbio HTRF pERK), ASPC1 cells
# Format: cell-based
# experimental.context: Homo sapiens, ASPC1; single point at 100 nM; AsPC-1 cells; 3 hrs compound incubation

compound: CCc1c(F)ccc2cc(O)cc(N3CCc4c(nc(OC[C@@]56CCCN5C[C@H](F)C6)nc4N4CCCn5nc(C(=O)N6CC7CCC6CN7)cc5C4)C3)c12 (stereo partly drawn)
experimental.system: ASPC1 cells
inhibition at 0.1 µM: 34%
//
compound: CCc1c(F)ccc2cc(O)cc(N3CCc4c(nc(OC[C@@]56CCCN5C[C@H](F)C6)nc4N4CCCn5nc(N)c(Cl)c5C4)C3)c12
experimental.system: ASPC1 cells
inhibition at 0.1 µM: 95%
//
compound: CCc1c(F)ccc2cc(O)cc(N3CCc4c(nc(OC[C@@]56CCCN5C[C@H](F)C6)nc4N4CCCn5nc(C(=O)N6CC7CC6CN7)cc5C4)C3)c12 (stereo partly drawn)
experimental.system: ASPC1 cells
inhibition at 0.1 µM: 22%

---

# Test system: ASPC1 cells
# assay.summary: Inhibition of KRas-mediated phosphorylation of ERK (Cisbio HTRF pERK), ASPC1 cells
# Type: cell-based
# experimental.context: Homo sapiens, ASPC1; single point at 100 nM; AsPC-1 cells; 3 hrs compound incubation
Listed next: entries and their corresponding inhibition at 0.1 µM.

molecule: O=S1(=O)NCC2(CCCN(c3nc(OCC45CCCN4CCC5)nc4c3CCN(c3cc(O)cc(Cl)c3C3CC3)C4)C2)N1 (stereo not drawn)
inhibition at 0.1 µM, %: -4
//
molecule: CCc1c(F)ccc2cc(O)cc(N3CCc4c(nc(OC[C@@]56CCCN5C[C@H](F)C6)nc4N4CCCn5nc(C(=O)NC6CC6)cc5C4)C3)c12
inhibition at 0.1 µM, %: 98
//
molecule: Oc1cc(Cl)c(C2CC2)c(N2CCc3c(nc(OCC45CCCN4CCC5)nc3N3CCC[C@]4(C3)C[C@@H](O)C4)C2)c1
inhibition at 0.1 µM, %: 9
//
molecule: CCc1c(F)ccc2cc(O)cc(N3CCc4c(nc(OC[C@@]56CCCN5C[C@H](F)C6)nc4N4CCCn5nc(C(=O)N6C[C@@H]7C[C@H](C6)[C@H](O)C7)cc5C4)C3)c12
inhibition at 0.1 µM, %: 84
//
molecule: CCc1c(F)ccc2cc(O)cc(N3CCc4c(nc(OC[C@@]56CCCN5C[C@H](F)C6)nc4N4CCCn5nc(C(=O)NC)c(OC)c5C4)C3)c12
inhibition at 0.1 µM, %: 99
//
molecule: CCc1c(C(=O)N(C)C)nn2c1CN(c1nc(OC[C@@]34CCCN3C[C@H](F)C4)nc3c1CCN(c1cc(O)cc4ccc(F)c(CC)c14)C3)CCC2
inhibition at 0.1 µM, %: 95

---

# experimental.system: KRas G12D (Homo sapiens, UniProt P01116, G12D)
# Sequence (P01116 1-169 isoform P01116-2 G12D): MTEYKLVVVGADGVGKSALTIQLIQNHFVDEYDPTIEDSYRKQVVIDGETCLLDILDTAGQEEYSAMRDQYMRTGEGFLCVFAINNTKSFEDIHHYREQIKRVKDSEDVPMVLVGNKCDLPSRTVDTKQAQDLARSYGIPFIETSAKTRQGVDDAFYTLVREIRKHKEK
# assay.summary: biochemical
# experimental.context: Binding to KRas (IC50 nM) G12D, TR-FRET displacement, KRas G12D
property.label: IC50

molecule: Cc1c(F)ccc2cc(O)cc(N3CCc4c(nc(OC[C@@]56CCCN5C[C@H](F)C6)nc4N4CCCC5(CNS(=O)(=O)N5)C4)C3)c12 (stereo partly shown)
experimental.system: KRas G12D (Homo sapiens, UniProt P01116, G12D)
property.label: IC50
reported.result: < 2 nM
//
molecule: CCc1c(F)ccc2cc(O)cc(N3CCc4c(nc(OCC5(CN(C)C)CC5)nc4N4CCCn5nncc5C4)C3)c12
experimental.system: KRas G12D (Homo sapiens, UniProt P01116, G12D)
property.label: IC50
reported.result: < 2 nM
//
molecule: C=C1CN2CCCC2(COc2nc3c(c(N4CCC[C@@](C)(O)C4)n2)CCN(c2cc(O)cc4ccc(F)c(CC)c24)C3)C1 (stereo partly shown)
experimental.system: KRas G12D (Homo sapiens, UniProt P01116, G12D)
property.label: IC50
reported.result: < 2 nM
//
molecule: CCc1c(F)ccc2cc(O)cc(N3CCc4c(nc(OC[C@@]56CCCN5C[C@H](F)C6)nc4N4CCCn5nc(C(=O)N(C)C(C)C)cc5C4)C3)c12
experimental.system: KRas G12D (Homo sapiens, UniProt P01116, G12D)
property.label: IC50
reported.result: < 2 nM
//
molecule: CCc1c(F)ccc2cc(O)cc(N3CCc4c(nc(OC[C@@]56CCCN5C[C@H](F)C6)nc4N4CCCn5nc(C(=O)N6CCC7CC76)cc5C4)C3)c12 (stereo partly shown)
experimental.system: KRas G12D (Homo sapiens, UniProt P01116, G12D)
property.label: IC50
reported.result: < 2 nM
//
molecule: CCc1c(F)ccc2cc(O)cc(N3CCc4c(nc(OC[C@@]56CCCN5C[C@H](F)C6)nc4N4CCCn5nc(P(C)(C)=O)cc5C4)C3)c12
experimental.system: KRas G12D (Homo sapiens, UniProt P01116, G12D)
property.label: IC50
reported.result: < 2 nM
//
molecule: C[C@@H]1C[C@@H]1c1c(Cl)cc(O)cc1N1CCc2c(nc(OC[C@@]34CCCN3C[C@H](F)C4)nc2N2CCC[C@]3(C2)NC(=O)NC3=O)C1 (stereo in doubt)
experimental.system: KRas G12D (Homo sapiens, UniProt P01116, G12D)
property.label: IC50
reported.result: < 2 nM
